Target: human Claudin-6 (CLDN6) (human) (UniProt P56747)
Experiment: FACS, 0.3 ug Ab, 293T clone expressing human CLDN6 (2nd Ab only 768.07)
Give FACS fluorescence for every item shown.

| binder | measured.metric | result |
| --- | --- | --- |
| AB4-9 (antibody, V domains shown, humanized) VH: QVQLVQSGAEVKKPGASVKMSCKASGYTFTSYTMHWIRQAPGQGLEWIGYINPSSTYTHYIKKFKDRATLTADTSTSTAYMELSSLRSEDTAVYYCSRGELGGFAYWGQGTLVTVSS VL: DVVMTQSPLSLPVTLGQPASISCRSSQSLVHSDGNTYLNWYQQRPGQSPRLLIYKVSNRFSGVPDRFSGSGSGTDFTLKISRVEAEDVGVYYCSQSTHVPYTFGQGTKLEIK | FACS fluorescence | 37200 |

Field: next binder
Which value of FACS fluorescence has been reported for AB4-10 (antibody, V domains shown, humanized) VH: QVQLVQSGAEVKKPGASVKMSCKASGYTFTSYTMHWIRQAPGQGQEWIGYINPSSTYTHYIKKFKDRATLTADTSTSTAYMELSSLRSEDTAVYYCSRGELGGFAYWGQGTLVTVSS VL: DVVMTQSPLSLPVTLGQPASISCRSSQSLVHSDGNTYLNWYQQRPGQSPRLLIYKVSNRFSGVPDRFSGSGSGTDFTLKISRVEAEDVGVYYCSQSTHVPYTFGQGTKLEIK in the records?
50800
